# Tested On: ATPase family AAA domain-containing protein 5 (Homo sapiens) (UniProt Q96QE3)
# Sequence (Q96QE3 whole entry, looked up, the tested form may be a part): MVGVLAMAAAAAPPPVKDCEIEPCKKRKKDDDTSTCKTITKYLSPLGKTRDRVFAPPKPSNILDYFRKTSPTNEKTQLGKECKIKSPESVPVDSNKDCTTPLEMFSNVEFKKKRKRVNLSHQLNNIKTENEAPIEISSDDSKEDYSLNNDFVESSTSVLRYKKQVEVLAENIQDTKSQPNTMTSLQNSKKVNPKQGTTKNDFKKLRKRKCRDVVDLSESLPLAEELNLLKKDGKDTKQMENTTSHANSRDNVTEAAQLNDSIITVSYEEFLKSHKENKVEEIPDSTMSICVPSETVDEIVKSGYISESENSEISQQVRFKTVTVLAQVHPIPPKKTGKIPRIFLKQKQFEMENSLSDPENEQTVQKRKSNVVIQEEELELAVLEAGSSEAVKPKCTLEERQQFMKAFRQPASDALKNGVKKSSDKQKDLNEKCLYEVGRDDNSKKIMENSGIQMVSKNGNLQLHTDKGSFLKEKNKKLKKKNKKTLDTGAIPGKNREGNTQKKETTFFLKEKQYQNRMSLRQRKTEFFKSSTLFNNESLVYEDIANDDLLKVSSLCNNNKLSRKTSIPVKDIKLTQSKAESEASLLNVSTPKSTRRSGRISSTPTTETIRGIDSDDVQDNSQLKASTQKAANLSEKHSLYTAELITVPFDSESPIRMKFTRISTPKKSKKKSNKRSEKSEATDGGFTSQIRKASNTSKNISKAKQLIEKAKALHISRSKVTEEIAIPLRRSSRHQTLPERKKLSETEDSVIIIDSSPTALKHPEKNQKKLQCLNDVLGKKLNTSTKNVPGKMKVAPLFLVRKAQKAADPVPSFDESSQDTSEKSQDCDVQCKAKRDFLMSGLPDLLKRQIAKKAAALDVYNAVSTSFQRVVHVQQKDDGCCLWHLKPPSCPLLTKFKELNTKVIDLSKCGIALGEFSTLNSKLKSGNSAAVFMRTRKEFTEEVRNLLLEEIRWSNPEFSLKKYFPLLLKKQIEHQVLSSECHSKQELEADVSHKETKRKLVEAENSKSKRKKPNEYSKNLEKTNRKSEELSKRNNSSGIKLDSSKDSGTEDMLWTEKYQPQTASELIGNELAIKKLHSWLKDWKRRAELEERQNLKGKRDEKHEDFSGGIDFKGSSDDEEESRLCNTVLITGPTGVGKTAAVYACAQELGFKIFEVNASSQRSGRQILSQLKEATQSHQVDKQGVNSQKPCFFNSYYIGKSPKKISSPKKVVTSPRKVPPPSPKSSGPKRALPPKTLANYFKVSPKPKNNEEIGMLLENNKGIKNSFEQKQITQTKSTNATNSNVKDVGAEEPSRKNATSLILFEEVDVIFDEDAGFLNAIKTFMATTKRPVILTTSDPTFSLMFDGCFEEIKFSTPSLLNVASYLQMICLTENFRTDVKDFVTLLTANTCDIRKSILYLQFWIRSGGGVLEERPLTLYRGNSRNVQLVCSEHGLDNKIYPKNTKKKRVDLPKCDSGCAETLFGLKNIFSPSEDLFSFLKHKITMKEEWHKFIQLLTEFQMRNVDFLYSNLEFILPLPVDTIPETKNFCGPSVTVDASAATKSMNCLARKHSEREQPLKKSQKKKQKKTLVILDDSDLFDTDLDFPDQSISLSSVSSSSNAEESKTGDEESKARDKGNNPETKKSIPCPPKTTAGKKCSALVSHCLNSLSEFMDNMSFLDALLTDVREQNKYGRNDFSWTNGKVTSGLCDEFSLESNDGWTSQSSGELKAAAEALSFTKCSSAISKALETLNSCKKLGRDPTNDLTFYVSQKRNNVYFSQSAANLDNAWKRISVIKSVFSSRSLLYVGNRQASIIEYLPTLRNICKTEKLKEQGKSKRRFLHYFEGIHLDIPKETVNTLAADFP
# Assay Explanation: Validation screen for small molecules that inhibit ELG1-dependent DNA repair in human embryonic kidney (HEK293T) cells expressing luciferase-tagged ELG1 (AID 493107); note: nearly all actives have a fitted effect of over 70% in size
# Measurement Context: HEK293T ELG1-luciferase level, luminescence, 5-fluorouridine co-treatment, 16 h; series mostly up to 46.1 µM
# Text: NIH Molecular Libraries Probe Production Network [MLPCN] NIH Chemical Genomics Center [NCGC] Assay Provider: Kyungjae Myung, NHGRI, NIH Keywords: MLPCN, qHTS, NCGC, genotoxicity, cancer Cancer cells divide rapidly compared to normal cells in the body. During cell division, cancer cells need to duplicate their genome by DNA replication. The failure of genome duplication leads to cancer cells' death. […] With this in mind, we developed a quantitative high-throughput ELG1-luciferase reporter gene assay. […]
Results filed as inconclusive are left out. Active and inactive are the calls of the source. Calls come from the whole dose curve; as a rule, active = well fitted inhibition curve with a large enough effect; inconclusive = small, poorly fitted or top-dose-only effect, or effect the other way; inactive = flat fitted curve, though single readings scatter.
Please state which outcome applies, choosing from active, inactive

Inquiry: What classification did CCCNCC(O)COc1ccccc1C(=O)CCc1ccccc1 (configuration not stated) end up with in this test?
Reply text: inactive

Inquiry: Hi team, can someone confirm the assay call for CC(C)NCC(O)COc1ccc(CCOCC2CC2)cc1 (configuration not stated) ?
Reply text: inactive

Inquiry: Can you look up the reported call for CC(CCc1ccc(O)cc1)NCCc1ccc(O)c(O)c1 (configuration not stated) for me?
Reply text: inactive

Inquiry: What is the recorded call for this compound in the test? CN(C)CCOC(c1ccccc1)c1ccccc1
Reply text: inactive

Inquiry: Fill in: this test's call for O=C(C1CCCCC1)N1CC(=O)N2CCc3ccccc3C2C1 (configuration not stated) is ___
Reply text: inactive

Inquiry: Please state the recorded outcome for this compound: COC(=O)Nc1nc2ccc(C(=O)c3cccs3)cc2[nH]1
Reply text: inactive

Inquiry: Outcome logged for Nc1nnc(-c2cccc(Cl)c2Cl)c(N)n1 in this assay:
Reply text: inactive

Inquiry: How did this test come out for CCc1cccc2c3c([nH]c12)C(CC)(CC(=O)O)OCC3 (configuration not stated) ?
Reply text: inactive

Inquiry: Which outcome was assigned to COc1nc(C)nc(Cl)c1NC1=NCCN1 in this test?
Reply text: inactive

Inquiry: # outcome recorded in this test, key = CC1COc2c(N3CCN(C)CC3)c(F)cc3c(=O)c(C(=O)O)cn1c23 (configuration not stated)
Reply text: inactive

Inquiry: Status in this test for CCOC(=O)Nc1ccc(NCc2ccc(F)cc2)nc1N ?
Reply text: inactive

Inquiry: Fill in: this test's call for N[C@@H](Cc1c[nH]c2ccc(O)cc12)C(=O)O is ___
Reply text: inactive

Inquiry: Please state the recorded outcome for this compound: Nc1nc2c(ncn2COC(CO)CO)c(=O)[nH]1
Reply text: inactive

Inquiry: Which outcome was entered for the compound CC12CC3CC(C)(C1)CC(N)(C3)C2 in this test?
Reply text: inactive

Inquiry: Test call, this compound: Cc1ccc(C(=O)Nc2ccc(S(=O)(=O)O)c3cc(S(=O)(=O)O)cc(S(=O)(=O)O)c23)cc1NC(=O)c1cccc(NC(=O)Nc2cccc(C(=O)Nc3cc(C(=O)Nc4ccc(S(=O)(=O)O)c5cc(S(=O)(=O)O)cc(S(=O)(=O)O)c45)ccc3C)c2)c1
Reply text: inactive

Inquiry: Can you look up the reported call for CN1C(C(=O)Nc2ccccn2)=C(O)c2ccccc2S1(=O)=O for me?
Reply text: inactive

Inquiry: Please state the recorded outcome for this compound: CN(C)CCC=C1c2ccccc2C=Cc2ccccc21
Reply text: inactive

Inquiry: Dear colleague, could you share the recorded outcome for Cn1c(=O)c2c(ncn2C)n(C)c1=O when you have a moment?
Reply text: inactive

Inquiry: Please state the recorded outcome for this compound: CCN1CCCC1CNC(=O)c1cc(S(=O)(=O)CC)c(N)cc1OC (configuration not stated)
Reply text: inactive

Inquiry: Status in this test for CN1C2CCC1CC(OC(=O)C(CO)c1ccccc1)C2 (configuration not stated) ?
Reply text: inactive

Inquiry: Per the records of this test, what outcome belongs to C[C@](N)(Cc1ccc(O)c(O)c1)C(=O)O ?
Reply text: inactive

Inquiry: // outcome(item) with item = NCCc1cnc[nH]1
Reply text: inactive

Inquiry: Hi, sorry to bother you, what did the test record for CN1CCC(=C2c3ccccc3CC(=O)c3sccc32)CC1 ?
Reply text: inactive

Inquiry: What call does the record list for COc1ccc2c(c1)c(CC(=O)O)c(C)n2C(=O)c1ccc(Cl)cc1 ?
Reply text: inactive

Inquiry: For CCC1(C)CC(=O)NC1=O (configuration not stated) , what call appears in the results of this test?
Reply text: inactive

Inquiry: State the result this test recorded for COc1cc2c(c(OC)c1OC)-c1ccc(OC)c(=O)cc1[C@@H](NC(C)=O)CC2 .
Reply text: inactive

Inquiry: Which outcome did this test record for the compound CCOC(=O)c1ncn2c1CN(C)C(=O)c1cc(F)ccc1-2 ?
Reply text: inactive

Inquiry: I would be grateful if you could indicate the recorded call for O=C1c2c(O)ccc(O)c2C(=O)c2c(NCCNCCO)ccc(NCCNCCO)c21 .
Reply text: active

Inquiry: Test call, this compound: OCCN1CCN(CCCN2c3ccccc3Sc3ccc(C(F)(F)F)cc32)CC1
Reply text: inactive

Inquiry: I'd appreciate the recorded outcome for NCCS(=O)(=O)O from this test.
Reply text: inactive

Inquiry: Query: recorded result category for Cn1cnc2c1c(=O)[nH]c(=O)n2C in this test
Reply text: inactive

Inquiry: Which outcome was assigned to CC[N+](CC)(CC)CCOc1cccc(OCC[N+](CC)(CC)CC)c1OCC[N+](CC)(CC)CC in this test?
Reply text: inactive

Inquiry: Query: recorded result category for Cc1cn([C@H]2C=C[C@@H](CO)O2)c(=O)[nH]c1=O in this test
Reply text: inactive

Inquiry: For NC(=O)NO , what call appears in the results of this test?
Reply text: inactive

Inquiry: Outcome logged for CN1CCC(=C2c3ccccc3C=Cc3ccccc32)CC1 in this assay:
Reply text: inactive

Inquiry: Tell me the recorded outcome of this test for CN(Cc1cnc2nc(N)nc(N)c2n1)c1ccc(C(=O)N[C@@H](CCC(=O)O)C(=O)O)cc1 .
Reply text: inactive

Inquiry: Hello, I am checking results. What call was entered for NC(CO)C(=O)NNCc1ccc(O)c(O)c1O (configuration not stated) ?
Reply text: inactive
